System: NCI-H226 lung
MEASUREMENT_DESCRIPTION: NCI tumour cell line growth inhibition, 48 h
MEASURED_ENDPOINT: GI50

[[record]]
compound = "Cc1cc2cn3c4ccc(O)cc4nc(N)c3c2cc1C"
result = "0.502 µM"

[[record]]
compound = "[2H]c1nc(C)nc([2H])c1-c1cc(NC[C@@H](C)c2cccc3c(C(=O)NC)ccnc23)ncn1"
result = "> 100 µM"

[[record]]
compound = "COc1cc(/C=C2\\C(=O)Nc3ccccc32)cc(OC)c1O"
result = "17.7 µM"

[[record]]
compound = "CCCN1C/C(=C\\c2ccc(O)c(OC)c2)C(=O)/C(=C/c2ccc(O)c(OC)c2)C1"
result = "> 100 µM"

[[record]]
compound = "Cc1ccc(C2=Nc3c(N)nc(N)nc3NC(c3cccc(Nc4ccnc5cc(C(F)(F)F)ccc45)c3)C2)cc1 (centres undefined)"
result = "4.88 µM"

[[record]]
compound = "O=C(CN(/C=C/C(=O)C(F)(F)F)c1ccc(Cl)cc1)c1ccc(F)cc1"
result = "16.2 µM"

[[record]]
compound = "CC(=O)NC1C(OCc2ccccc2)OC(CO)C(O)C1OC(C)C(=O)NC(C)C(=O)N[C@@H](CCC(=O)OCCCNC1c2ccccc2Nc2cccc([N+](=O)[O-])c21)C(N)=O (some centres undefined)"
result = "0.0147 µM"

[[record]]
compound = "CC(C)N(CCCNC(=O)Nc1ccc(C(C)(C)C)cc1)C[C@H]1O[C@@H](n2ccc3c(N)ncnc32)[C@H](O)[C@@H]1O"
result = "> 100 µM"

[[record]]
compound = "Clc1ccc(Cn2c(CN3CCCC3)nc3ccccc32)cc1"
result = "14.8 µM"


====

Test system: A498 renal
MEASUREMENT_DESCRIPTION: NCI tumour cell line growth inhibition, 48 h
Listed next: entries and their corresponding TGI.
MEASURED_ENDPOINT: TGI

[[record]]
compound = "CCCCCCCCCCCCCCCCCCOP(=O)([O-])OCC[N+](C)(C)C"
result = "> 46.4 µM"

[[record]]
compound = "N/C(=N\\N=C/c1c2ccccc2c(Cl)c2ccccc12)NO"
result = "29 µM"

[[record]]
compound = "O=C1OCCC1(Cc1ccc(Cl)cc1)Cc1ccc(Cl)cc1"
result = "> 100 µM"

[[record]]
compound = "CCCCCCCCCCCC(=O)NCc1ccc(OC(=O)CCCCCCCCCCC)c(OC)c1"
result = "> 100 µM"

[[record]]
compound = "Cc1cccc2nc3cccc(C(=O)NCCC[N+](C)(CCCNC(=O)c4cccc5nc6cccc(C)c6nc45)Cc4ccc([N+](=O)[O-])n4C)c3nc12"
result = "> 100 µM"

[[record]]
compound = "OC(COc1cccc2ccccc12)CN1CCOCC1 (stereo unspecified)"
result = "> 100 µM"

[[record]]
compound = "CNC(=S)/C(C#N)=C(\\N)N1CCN(C)CC1"
result = "> 100 µM"

[[record]]
compound = "O=C1/C=C/[C@@H](O)[C@@H]2C[C@@H](O)C[C@H]2/C=C/CCC[C@H](CCc2ccccc2)O1"
result = "0.0409 µM"

[[record]]
compound = "ONCCCn1cnc2c(NC3CC3)ncnc21"
result = "> 100 µM"

[[record]]
compound = "O=C1C=C(Nc2ccc(Br)cc2)c2ccccc2C1=O"
result = "31 µM"

[[record]]
compound = "COc1ccc(/C=N/N/C(O)=c2/sc(=C(C#N)C#N)n(-c3ccccc3)c2=N)cc1"
result = "> 100 µM"

